system: Human peripheral blood mononuclear cells; experiment: Human Concanavalin-A Proliferation Assay (Con HU Assay); type: cell-based; conditions: Homo sapiens, PBMC, concanavalin-A stimulated human PBMC, tritiated thymidine
pIC50: −log10 of the molar value.
value.kind: pIC50

[[record]]
compound = "O=C(Nc1ccc(-n2nc(C(F)(F)F)cc2OC(F)F)cc1)c1ccccc1Cl"
assay_target = "Human peripheral blood mononuclear cells"
value_kind = "pIC50"
value_observed = 6.76

[[record]]
compound = "O=C(Nc1ccc(-n2nc(C(F)(F)F)cc2C(F)(F)F)cc1)c1cc(F)c(F)cc1F"
assay_target = "Human peripheral blood mononuclear cells"
value_kind = "pIC50"
value_observed = 6.83

[[record]]
compound = "COc1ccccc1C(=O)Nc1ccc(-n2nc(C(F)(F)F)cc2C(F)(F)F)cc1"
assay_target = "Human peripheral blood mononuclear cells"
value_kind = "pIC50"
value_observed = 5.78

[[record]]
compound = "O=C(Nc1ccc(-n2nc(C(F)(F)F)cc2C(F)(F)F)cc1)c1ccc(F)cc1"
assay_target = "Human peripheral blood mononuclear cells"
value_kind = "pIC50"
value_observed = 6.84

[[record]]
compound = "O=C(Nc1ccc(-n2nc(C(F)(F)F)cc2-c2cccs2)cc1)c1ccccc1F"
assay_target = "Human peripheral blood mononuclear cells"
value_kind = "pIC50"
value_observed = 6.51

[[record]]
compound = "Cc1ccc(C(=O)Nc2ccc(-n3nc(C(F)(F)F)cc3C(F)(F)F)cc2)cc1"
assay_target = "Human peripheral blood mononuclear cells"
value_kind = "pIC50"
value_observed = 5.67

[[record]]
compound = "CNC(=O)c1ccccc1C(=O)Nc1ccc(-n2nc(C(F)(F)F)cc2C(F)(F)F)cc1"
assay_target = "Human peripheral blood mononuclear cells"
value_kind = "pIC50"
value_observed = 4.29

[[record]]
compound = "COc1cccc(C(=O)Nc2ccc(-n3nc(C(F)(F)F)cc3C(F)(F)F)cc2)c1"
assay_target = "Human peripheral blood mononuclear cells"
value_kind = "pIC50"
value_observed = 5.80

[[record]]
compound = "O=C(Nc1ccc(-n2nc(C(F)(F)F)cc2C(F)(F)F)cc1)Nc1cccc([N+](=O)[O-])c1"
assay_target = "Human peripheral blood mononuclear cells"
value_kind = "pIC50"
value_observed = 5.39

[[record]]
compound = "O=C(Nc1ccc(-n2nc(C(F)(F)F)cc2C(F)(F)F)cc1)c1cnc(Cl)c(Cl)c1"
assay_target = "Human peripheral blood mononuclear cells"
value_kind = "pIC50"
value_observed = 6.46

[[record]]
compound = "O=C(Nc1ccc(-n2nc(C(F)(F)F)cc2C(F)(F)F)cc1)c1ccccc1F"
assay_target = "Human peripheral blood mononuclear cells"
value_kind = "pIC50"
value_observed = 7.08

[[record]]
compound = "O=C(Nc1ccc(-n2nc(C(F)(F)F)cc2C(F)(F)F)cc1)c1ccc(O)c([N+](=O)[O-])c1"
assay_target = "Human peripheral blood mononuclear cells"
value_kind = "pIC50"
value_observed = 5.54

[[record]]
compound = "Cn1cccc1C(=O)Nc1ccc(-n2nc(C(F)(F)F)cc2C(F)(F)F)cc1"
assay_target = "Human peripheral blood mononuclear cells"
value_kind = "pIC50"
value_observed = 6.84

[[record]]
compound = "O=C(Nc1ccc(-n2nc(C(F)(F)F)cc2C(F)(F)F)cc1)c1ccccc1[N+](=O)[O-]"
assay_target = "Human peripheral blood mononuclear cells"
value_kind = "pIC50"
value_observed = 6.65

[[record]]
compound = "O=C(Nc1ccc(-n2nc(C3CCCO3)cc2C(F)(F)F)cc1)c1ccncc1F (stereo not shown)"
assay_target = "Human peripheral blood mononuclear cells"
value_kind = "pIC50"
value_observed = 6.56

[[record]]
compound = "COC(=O)c1cccc(C(=O)Nc2ccc(-n3nc(C(F)(F)F)cc3C(F)(F)F)cc2)c1"
assay_target = "Human peripheral blood mononuclear cells"
value_kind = "pIC50"
value_observed = 6.42


FYI, the data here is from patent US20010044445A1.
